# system_under_test: Protein ENL (Homo sapiens, UniProt Q03111)
# Sequence (Q03111 whole entry): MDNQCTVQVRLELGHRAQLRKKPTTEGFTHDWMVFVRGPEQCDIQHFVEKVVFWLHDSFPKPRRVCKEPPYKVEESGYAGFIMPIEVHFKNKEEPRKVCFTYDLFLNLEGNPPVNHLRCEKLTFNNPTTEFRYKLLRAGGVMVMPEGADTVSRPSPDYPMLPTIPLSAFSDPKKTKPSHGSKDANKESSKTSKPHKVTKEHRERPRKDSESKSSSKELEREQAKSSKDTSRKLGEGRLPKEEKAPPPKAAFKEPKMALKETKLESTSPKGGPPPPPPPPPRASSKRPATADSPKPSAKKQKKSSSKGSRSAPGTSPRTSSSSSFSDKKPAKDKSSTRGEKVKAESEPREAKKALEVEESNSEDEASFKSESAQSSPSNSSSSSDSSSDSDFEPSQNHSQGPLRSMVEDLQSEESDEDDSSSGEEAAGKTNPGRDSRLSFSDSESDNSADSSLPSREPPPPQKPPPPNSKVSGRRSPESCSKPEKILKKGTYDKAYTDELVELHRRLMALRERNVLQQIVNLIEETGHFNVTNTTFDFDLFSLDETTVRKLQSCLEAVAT
Square brackets hold non-standard residues; d marks the D form. Peptide text beside a SMILES is read from it. * marks the point of attachment. X3 = c1ccc(-c2cn(CC3CCCCC3)c([C@@H]3CCCN3*)n2)cc1; Ala(cPent) = N[C@@H](CC1CCCC1)C(=O)O; Gly(cPent) = N[C@H](C(=O)O)C1CCCC1; Dap = NC[C@H](N)C(=O)O
property_label: pIC50
Please report pIC50 as the negative decimal logarithm of the molar concentration, giving only the number.

*Q* Provide one value: measured pIC50 of CC[C@H](C)[C@H](NC(=O)[C@@H]1CCCN1C(=O)[C@H](CC(C)C)NC(C)=O)C(=O)N[C@@H](CO)C(=O)N[C@H](C(=O)N1CCC[C@H]1C(=O)N[C@@H](CC(C)C)C(=O)N(C)C)C1CCCC1 (Ac-LPIS[Gly(cPent)]PL-NMe2)
*A* 5.34

*Q* Kindly indicate its recorded pIC50. Item: CC(=O)N[C@@H](CC(C)C)C(=O)N1CCC[C@H]1C(=O)N[C@H](C(=O)N[C@@H](CN)C(=O)N[C@@H](CC1CCCC1)C(=O)N1CCC[C@H]1c1nc(-c2ccccc2)cn1CC1CCCCC1)C(C)C (Ac-LPV[Dap][Ala(cPent)]-X3)
*A* 6.37

*Q* Return value of pIC50 for input CC[C@H](C)[C@H](NC(=O)[C@@H]1CCCN1C(=O)[C@H](CC(C)C)NC(C)=O)C(=O)N[C@@H](CO)C(=O)N[C@@H](CC1CCCC1)C(=O)N1CCC[C@H]1C(=O)N[C@@H](CC(C)C)C(=O)N(C)C (Ac-LPIS[Ala(cPent)]PL-NMe2) , no commentary.
*A* 5.66

*Q* Tell us which pIC50 value is on record for CC[C@H](C)[C@H](NC(=O)[C@@H]1CCCN1C(=O)[C@H](CC(C)C)NC(C)=O)C(=O)N[C@@H](CN)C(=O)N[C@@H](CC1CCCC1)C(=O)N1CCC[C@H]1C(=O)N[C@@H](CC(C)C)C(=O)N(C)C (Ac-LPI[Dap][Ala(cPent)]PL-NMe2)
*A* 6.41

Data origin: ChEMBL document CHEMBL4196231
